System: M19-MEL
Assay: NCI tumour cell line growth inhibition, 48 h
Calls of active or inactive are those of the source. Cut-off read from the data, not from the text of the source: active = GI50 up to about 1.1 µM and inactive = higher.

| compound | GI50 |
| --- | --- |
| CC1=CC(=O)N(c2c(C)cccc2Cl)C(C)N1 (stereo not drawn) | > 100 µM (inactive) |
| CSC(=S)NNC(=O)c1ccncc1 | 19.1 µM (inactive) |
| Fc1cccc(Cl)c1C1SCc2nc3ccccc3n21 (stereo not drawn) | 26.1 µM (inactive) |
| CCOC1c2cc(OC)c(OC)cc2-c2ccc3ccccc3c2N1C (stereo not drawn) | 11.2 µM (inactive) |
| CN(C)c1ccc(C(=C(c2ccc(N(C)C)cc2)c2ccc(N(C)C)cc2)c2ccc(N(C)C)cc2)cc1 | 26.5 µM (inactive) |
| CCOP(=O)(OCC)C(C(=O)OC)C(=O)C(=O)Nc1cccc([N+](=O)[O-])c1 (stereo not drawn) | > 100 µM (inactive) |
| O=C(c1ccccc1)c1c(CC(O)c2ccncc2)n(C(=O)c2ccccc2)c2ccccc12 (stereo not drawn) | 17.9 µM (inactive) |
| O=C(CC(C(=O)c1ccsc1)c1cccs1)c1cccs1 (stereo not drawn) | 96.2 µM (inactive) |

====

Test system: NCI-H226
Experiment: NCI tumour cell line growth inhibition, 48 h
The source made the active and inactive calls. Rule as the data show it: active = GI50 up to about 1.1 µM and inactive = higher.
Catalogue of GI50 values

| molecule | GI50 |
| --- | --- |
| COc1ccc(/C=C2\Sc3nnc(C)n3N=C2c2cc(F)c(Cl)cc2Cl)cc1OC | 23.2 µM (inactive) |
| N/C(=N\Nc1ccc(S(N)(=O)=O)cc1)c1cnccn1 | > 100 µM (inactive) |
| Fc1cccc(Cl)c1C1SCc2nc3ccccc3n21 (centres undefined) | 36.6 µM (inactive) |
| CN/N=C(\C(=O)Nc1ccc([N+](=O)[O-])cc1[N+](=O)[O-])C1NC(=O)NC1=O (centres undefined) | > 100 µM (inactive) |
| Cc1cc(C#N)c(Nc2ccc(F)cc2[N+](=O)[O-])s1 | > 100 µM (inactive) |
| O=c1/c(=C/c2ccc(-c3ccc(Cl)cc3Cl)o2)sc2n1[C@@H](c1ccc3c(c1)OCO3)C=C(c1cc(F)c(Cl)cc1Cl)N=2 | 20.7 µM (inactive) |
| COC(=O)C12C3C4C1C1C2C3C41C(=O)N(C(C)C)C(C)C (centres undefined) | > 100 µM (inactive) |
| COc1ccc(-c2sc(Br)c3c2C(=O)C2OC(=O)NC32)cc1OC (centres undefined) | > 100 µM (inactive) |
| CCC1=CC2CN3CCc4c([nH]c5ccccc45)C(C(=O)OC)(C2)C13 (centres undefined) | 11 µM (inactive) |
| O=C(CC(=O)N1N=C(c2ccccc2)C(/N=N/c2ccccc2Cl)C1=O)Nc1ccccc1Cl (centres undefined) | 42.7 µM (inactive) |
| COc1ccc(Sc2ccccc2[N+](=O)[O-])cc1 | 13 µM (inactive) |
| CN(C)c1nc(NN)c2c(-c3ccccc3)c(-c3ccccc3)oc2n1 | > 100 µM (inactive) |
| O=C(NNC(=S)Nc1ccc(Cl)cc1)c1cc(-c2ccccc2)nc2ccccc12 | 11.5 µM (inactive) |
| N#Cc1sc2c(c1O)c(=O)n(-c1ccccc1)c(=S)n2-c1ccccc1 | > 100 µM (inactive) |
| CN(C(=O)c1ccc(Cl)cc1)C(=S)N1CCN(c2ccccn2)CC1 | 37.2 µM (inactive) |
| O=C(/C=C1\Nc2ccccc2C(=O)N1c1ccccc1Cl)c1ccccc1 | > 100 µM (inactive) |
| C[C@@H](c1ccccc1)n1c(N)c(-c2ccccn2)c2ccc([N+](=O)[O-])cc2c1=O | 36.6 µM (inactive) |
| CCCCN(CCCC)C(=O)C(=O)C(C(=O)c1ccc(OC)cc1)c1ccc(OC)cc1 (centres undefined) | > 100 µM (inactive) |
| Cc1ccc(Nc2cc(=O)[nH]c(=O)[nH]2)cc1CS | > 100 µM (inactive) |
| Cc1ccc(NC(=O)c2ccccc2C(=O)O)cc1C | > 100 µM (inactive) |
| CC(C#N)(c1ccccc1)N(CCc1ccccc1)C(=O)Oc1ccccc1 (centres undefined) | 38.5 µM (inactive) |
| [O-][n+]1c2cc3c(cc2[n+]([O-])c2c(O)cccc21)CN(CCN1CCOCC1)C3 | 41.9 µM (inactive) |
| CN(C)/C=N/S(=O)(=O)c1nn2c(C=O)c(-c3ccc([N+](=O)[O-])cc3)nc2s1 | 19.6 µM (inactive) |
| C[C@]12CC[C@H](O)CC1=CC[C@@H]1[C@@H]2CC[C@]2(C)NC(=O)/C(=C\c3ccccc3)C[C@@H]12 | 14.9 µM (inactive) |
| NCCCNCCCCN1CCOC1=O | > 100 µM (inactive) |
| COC(=O)C1=Cc2c(cc(OC)c(OC)c2OC)[C@H](c2ccc(OC)c(OC)c2OC)C1C(=O)OC (some centres undefined) | > 100 µM (inactive) |
| O=C1NC2(CCCCC2)C(=O)N1CCN(CCCl)CCCl [SPIROMUSTINE] | > 250 µM (inactive) |
| COc1cccc(C2ON=C(c3ccccc3)N2C23CC4CC(CC(C4)C2)C3)c1 (centres undefined) | 4.63 µM (inactive) |
| CC1CCC2c3c([nH]c4ccccc34)C3C(=O)N(C4CCCCC4)C(=O)C3C2C1 (centres undefined) | 16.5 µM (inactive) |

====

System: NCI-H226
Test: NCI tumour cell line growth inhibition, 48 h
Active and inactive are the calls of the source. No stated cut-off is given here; in the data, active = GI50 up to about 1.1 µM and inactive = higher.
Outcome codes: TRUE for active, FALSE for inactive

| compound | system | label |
| --- | --- | --- |
| COc1ccc(C2SCC(=O)N2c2ccc(-n3c(-c4ccccc4)nc4ccccc4c3=O)cc2)cc1OC (stereo not drawn) | NCI-H226 | FALSE |
| O=C(O)CCc1nc2c(n1Cc1ccccc1)C(=O)c1ccccc1C2=O | NCI-H226 | FALSE |
| O=C(CC1(O)C(=O)Nc2ccc([N+](=O)[O-])cc21)c1ccc(Br)cc1 (stereo not drawn) | NCI-H226 | FALSE |
| CC(=O)Oc1c(C)c2c(c3ccccc13)OC(C)(C)C2 | NCI-H226 | FALSE |
| CN1Cc2ccccc2C2(COc3ccccc3C2=O)C1 (stereo not drawn) | NCI-H226 | FALSE |
| CC1=CC(C)(C)NN1C1=NS(=O)(=O)c2ccccc2N1C | NCI-H226 | FALSE |
| C#CCNC(=O)NCCCCC(NC(=O)OCc1ccccc1)C(=O)OCc1ccccc1 (stereo not drawn) | NCI-H226 | FALSE |
| CCN(CCN(CC)C(=O)Nc1ccccc1)C(=O)Nc1ccccc1 | NCI-H226 | FALSE |
| CCC12CC(c3ccccc3)C(C(=O)N1)C(=O)N2 (stereo not drawn) | NCI-H226 | FALSE |
| CCOC(=O)c1nc2ccccc2nc1Nc1ccc(F)cc1 | NCI-H226 | FALSE |
| C[C@@]12C(=O)OC(=O)[C@]1(C)[C@H]1CC[C@@H]2O1 [CANTHARIDIN] | NCI-H226 | TRUE |
| CN1CCCS/C1=C1/SC(=S)N(c2ccccc2)C1=O | NCI-H226 | FALSE |
| COc1ccc2c(c1)C(=O)C(=O)c1cc(O)c(OC)c(OC)c1-2 | NCI-H226 | FALSE |
| Cc1c(Cl)ccc2c1NC(=O)C2(O)CC(=O)c1ccc2ccccc2c1 (stereo not drawn) | NCI-H226 | FALSE |
| O=C1CSC(c2ccccc2)N1c1nc2cc3sc(N4C(=O)CSC4c4ccccc4)nc3cc2s1 (stereo not drawn) | NCI-H226 | FALSE |
| C1CCSCCCCSCCCCSCCCCSC1 | NCI-H226 | FALSE |
| COc1cc2c(c(OC)c1OC)-c1ccc(SC)c(=O)cc1[C@@H](NCc1ccccc1[N+](=O)[O-])CC2 | NCI-H226 | TRUE |
| O=C(c1ccccc1)C(c1ccccc1)C1(O)C(=O)Nc2ccc([N+](=O)[O-])cc21 (stereo not drawn) | NCI-H226 | FALSE |

====

Test system: NCI/ADR-RES
Test: NCI tumour cell line growth inhibition, 48 h
The source made the active and inactive calls. No stated cut-off is given here; in the data, active = GI50 up to about 1.1 µM and inactive = higher.
quantity.name: GI50

| compound | quantity.name | value.measured |
| --- | --- | --- |
| N#C[BH2-][n+]1cn(C2CC(OP(=O)(O)OCC3OC(n4ccc(N)nc4=O)CC3O)C(CO)O2)c2nc(N)[nH]c(=O)c21 (configuration not stated) | GI50 | > 100 µM (inactive) |
| CCOC(=O)c1c2cccccc-2nc1Nc1cccc2c(C)ccnc12 | GI50 | > 10 µM (inactive) |
| Cn1c(=O)oc2cc(C(=S)N3CCCCC3)ccc21 | GI50 | > 100 µM (inactive) |
| CCCCCCCCCCCCCCCCCC(=O)OCC(COC1OC(COP(=O)(O)O)C(O)C(O)C1O)OC(=O)CCCCCCCCCCCCCCCCC (configuration not stated) | GI50 | 9.33 µM (inactive) |
| O=C(/C=C(\Nc1ccccc1O)c1ccc(Br)cc1)C(Cl)(Cl)Cl | GI50 | 11.4 µM (inactive) |
| C/C(=N\Nc1ccc2ccccc2n1)c1ccccc1O | GI50 | > 37.5 µM (inactive) |
| COC1OC(CO)C(O)C(OC(=O)c2cc(O)c(O)c(O)c2)C1OC(=O)c1cc(O)c(O)c(O)c1 (configuration not stated) | GI50 | 60.4 µM (inactive) |
| COC(=O)[C@]1(c2cc3ccccc3[nH]2)CC2CN(CC(=O)N(C)OC)C1CC2(OC)OC (some centres not stated) | GI50 | 41.2 µM (inactive) |
| C=C1CC(C)(COc2ccc3c(C)c(Cl)c(=O)oc3c2)OC1=O (configuration not stated) | GI50 | 2.35 µM (inactive) |
| CCc1n[nH]c(=O)n1N | GI50 | > 100 µM (inactive) |
| COc1ccc(C(Nc2ncccn2)c2cc3c(cc2O)OCO3)cc1 (configuration not stated) | GI50 | 30.8 µM (inactive) |
| CN1CCC(CNC(=O)CCCCCCCCC(=O)NCC2(c3ccccc3)CCN(C)CC2)(c2ccccc2)CC1 | GI50 | > 100 µM (inactive) |
| CC1OC(OC2C(OC(=O)[C@]34CCC(C)(C)C[C@H]3C3=CC[C@@H]5[C@@]6(C)CC[C@H](OC7OC(CO)C(O)C(O)C7OC7OC(CO)C(O)C(O)C7O)C(C)(C)[C@@H]6CC[C@@]5(C)[C@]3(C)CC4)OCC(O)C2O)C(O)C(OC2OCC(O)C(O)C2O)C1OC1OCC(O)C(OC2OCC(O)C(O)C2O)C1O (some centres not stated) | GI50 | 11 µM (inactive) |
| O=C1CC2[C@@H](N3CCCC3)CCC(N1Cc1ccccc1)C2(O)O (some centres not stated) | GI50 | > 100 µM (inactive) |
| Clc1c2ncccc2cc2nn[nH]c12 | GI50 | > 100 µM (inactive) |
| COC(=O)c1ccc(NCC2=CC(=O)C=CC2=O)cc1O | GI50 | 18.1 µM (inactive) |
| COc1ccc(N2C(=O)CC(=O)N(C(=O)COc3ccc(OCC(=O)N4C(=O)CC(=O)N(c5ccc(OC)cc5)C4=S)cc3)C2=S)cc1 | GI50 | 66.4 µM (inactive) |
| CNC1C(OC2C(OC3C(O)C(O)C(O)C(O)C3O)OC(C)C2(O)CO)OC(CO)C(O)C1O.N=C(N)N.NC(=O)O (configuration not stated) | GI50 | > 100 µM (inactive) |
| c1ccc2c(c1)nc1n2CNCC1 | GI50 | > 100 µM (inactive) |
| COc1ccc2c(c1)/C(=C\c1c(Cl)nc3n1CCS3)C(=O)N2 | GI50 | 4.48 µM (inactive) |
| C/C(Cc1ccc2c(c1)OCO2)=N\N=c1\sc2ccccc2n1C | GI50 | > 100 µM (inactive) |
| COc1cc(C(c2cc(OC)c(OC)c(OC)c2)N2C(=O)CCC2C(=O)O)cc(OC)c1OC (configuration not stated) | GI50 | > 100 µM (inactive) |

Data origin: ChEMBL document CHEMBL1201862
